- system: T1, cynomolgus monkey IL-33 expressed with a C-terminal hexahistidine tag (cynomolgus monkey)
- T1 construct: also called MfIL-33-6His; Mf-IL-33-6His
- T1 chain: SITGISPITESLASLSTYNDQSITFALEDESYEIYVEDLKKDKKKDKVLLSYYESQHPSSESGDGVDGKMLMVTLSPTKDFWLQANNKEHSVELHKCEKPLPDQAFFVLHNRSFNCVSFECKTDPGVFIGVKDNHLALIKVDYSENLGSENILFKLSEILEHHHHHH
- protocol_details: SPR 25C, pH6.0 chase, mAb captured
- Description: Equilibrium dissociation constants (KD values) for IL-33 binding to purified anti-IL-33 monoclonal antibodies were determined using a real-time surface plasmon resonance biosensor using a Biacore 4000 instrument. […] Association of either hIL-33 or MfIL-33-6His to the captured monoclonal antibody was monitored for 4 minutes and their dissociation in ABS-ET running buffer was monitored for 10 minutes. […]
property_label: t½ (min)
Report the value in min with no unit label.

Record excerpt, results attached:
INSERT INTO measurements (binder, observed_result) VALUES
  ('H4H9663P (antibody, human IgG4, V domains shown, Human IgG4 Fc (H4H)) VH: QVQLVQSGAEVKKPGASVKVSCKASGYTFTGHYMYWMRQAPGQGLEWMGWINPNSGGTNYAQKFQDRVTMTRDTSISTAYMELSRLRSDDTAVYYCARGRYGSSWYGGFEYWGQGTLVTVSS VL: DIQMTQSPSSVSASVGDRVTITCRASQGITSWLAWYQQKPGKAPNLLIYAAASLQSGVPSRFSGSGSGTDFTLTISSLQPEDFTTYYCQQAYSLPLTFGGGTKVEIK', 17),
  ('H4H9666P (antibody, human IgG4, V domains shown, Human IgG4 Fc (H4H)) VH: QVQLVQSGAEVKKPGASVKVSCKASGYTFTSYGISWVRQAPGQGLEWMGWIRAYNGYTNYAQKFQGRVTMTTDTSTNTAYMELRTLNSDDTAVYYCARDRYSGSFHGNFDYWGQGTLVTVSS VL: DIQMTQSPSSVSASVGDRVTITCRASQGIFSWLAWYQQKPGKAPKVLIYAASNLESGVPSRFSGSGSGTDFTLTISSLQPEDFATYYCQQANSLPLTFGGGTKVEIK', 1.4);

Please find the next binder below.
Request: Output t½ of H4H9660P (antibody, human IgG4, V domains shown, Human IgG4 Fc (H4H)) VH: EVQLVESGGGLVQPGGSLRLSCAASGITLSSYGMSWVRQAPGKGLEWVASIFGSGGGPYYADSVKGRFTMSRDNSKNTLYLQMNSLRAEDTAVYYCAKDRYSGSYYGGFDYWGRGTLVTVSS VL: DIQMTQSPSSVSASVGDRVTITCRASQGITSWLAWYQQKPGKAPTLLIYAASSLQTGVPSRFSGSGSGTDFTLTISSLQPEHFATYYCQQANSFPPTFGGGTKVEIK
Response: 11

Attribution: patent US20160362487A1
